Tested on: 885512-296-R-J2-PDC complex spheroid viability
Assay: Anticancer human tumor 885512-296-R-J2-PDC patient-derived breast carcinoma cell line growth inhibition [GQUAD]
Details: second compound 0.1 µM; first compound 0.0999 µM; stronger effect = lower value
From the text: DNA G-quadruplex Stabilizer Agents in Combinations in Complex Spheroids A high-throughput screen of multi-cell type tumor spheroids was designed to identify active combinations of DNA G-quadruplex stabilizer agents and targeted small molecules. […] Compounds. […] If the clinical Cmax for an agent had not been determined, the highest concentration tested was 10 microM. […]
Quantity measured: viability, T/C (%)
Reply with just the number (in %).

Compound	System name	viability, T/C, %
Cc1[nH]c2ccccc2c1CCNCc1ccc(/C=C/C(=O)NO)cc1 + Cc1[nH]c2ccc(F)cc2c1-c1nc2c3cccnc3c3ncccc3c2[nH]1	885512-296-R-J2-PDC complex spheroid viability	103
CCc1c2c(nc3ccc(O)cc13)-c1cc3c(c(=O)n1C2)COC(=O)[C@]3(O)CC + Cc1cnc(CNC(=O)c2c(=O)c3ccc(N4CCCN(C)CC4)nc3n3c2sc2ccccc23)cn1	885512-296-R-J2-PDC complex spheroid viability	2.34
CC[C@@]1(O)C(=O)OCc2c1cc1n(c2=O)Cc2cc3c(CN(C)C)c(O)ccc3nc2-1 + Cc1[nH]c2ccc(F)cc2c1-c1nc2c3cccnc3c3ncccc3c2[nH]1	885512-296-R-J2-PDC complex spheroid viability	10.7

Query (compound): Cc1[nH]c2ccccc2c1CCNCc1ccc(/C=C/C(=O)NO)cc1 + Cc1cnc(CNC(=O)c2c(=O)c3ccc(N4CCCN(C)CC4)nc3n3c2sc2ccccc23)cn1 ; field requested: viability, T/C
29.8

Any idea what viability, T/C was measured for CCc1c2c(nc3ccc(O)cc13)-c1cc3c(c(=O)n1C2)COC(=O)[C@]3(O)CC + Cc1[nH]c2ccc(F)cc2c1-c1nc2c3cccnc3c3ncccc3c2[nH]1 ?
1.88

====

system: 885512-296-R-J2-PDC complex spheroid viability; experiment: Anticancer human tumor 885512-296-R-J2-PDC cell line growth inhibition [GQUAD]; conditions: curve of first compound; second compound 1 µM;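 further: spheroids exposed to the compounds for one week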
Quantity measured: IC50

Here is how some compounds turned out for IC50.
Compound	Result
C=CC(=O)N1CCN(c2nc(=O)n(-c3c(C)ccnc3C(C)C)c3nc(-c4c(O)cccc4F)c(F)cc23)C(C)C1 (stereo not drawn) + Cc1cnc(CNC(=O)c2c(=O)c3ccc(N4CCCN(C)CC4)nc3n3c2sc2ccccc23)cn1	< 31.6 nM
Cc1cccc(N(C)C(=O)C2C(O)CCN2c2nc(C)cc(C(F)(F)F)c2C#N)c1 (stereo not drawn) + Cc1[nH]c2ccc(F)cc2c1-c1nc2c3cccnc3c3ncccc3c2[nH]1	> 10000 nM

Sample CC1COCCN1c1cc(-c2ccnn2C)c2ccnc(-c3ccn[nH]3)c2n1 (stereo not drawn) + Cc1[nH]c2ccc(F)cc2c1-c1nc2c3cccnc3c3ncccc3c2[nH]1 — what was its IC50?
< 31.6 nM

====

Parameter: IC50. Scope: all listed entries.
Tested on: 885512-296-R-J2-PDC complex spheroid viability
Assay: Anticancer human tumor 885512-296-R-J2-PDC cell line growth inhibition [GQUAD];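 further: spheroids exposed to the compounds for one week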
Settings: curve of first compound; second compound 0.0316 µM
From the text: DNA G-quadruplex Stabilizer Agents in Combinations in Complex Spheroids A high-throughput screen of multi-cell type tumor spheroids was designed to identify active combinations of DNA G-quadruplex stabilizer agents and targeted small molecules. […] Compounds. […] If the clinical Cmax for an agent had not been determined, the highest concentration tested was 10 microM. […]

Completed entries (count: 2):
Compound	IC50
O=c1[nH]cc(F)c(=O)[nH]1 + Cc1cnc(CNC(=O)c2c(=O)c3ccc(N4CCCN(C)CC4)nc3n3c2sc2ccccc23)cn1	> 10000 nM
Cc1[nH]c2ccccc2c1CCNCc1ccc(/C=C/C(=O)NO)cc1 + Cc1[nH]c2ccc(F)cc2c1-c1nc2c3cccnc3c3ncccc3c2[nH]1	> 316 nM

Recorded IC50 for CC1COCCN1c1cc(C2(O)CC3CCC(C2)O3)c2cnn(-c3ccn[nH]3)c2n1 (stereo not given) + Cc1[nH]c2ccc(F)cc2c1-c1nc2c3cccnc3c3ncccc3c2[nH]1 , please?
< 31.6 nM

Reported IC50, compound COc1ccc([C@@H](O)c2cc(-c3ncnc4cc(N5CCOCC5)ccc34)c(F)cc2Cl)nn1 + Cc1[nH]c2ccc(F)cc2c1-c1nc2c3cccnc3c3ncccc3c2[nH]1 : ____
> 10000 nM

Requested field: IC50. Item: CC1COCCN1c1cc(C2(O)CC3CCC(C2)O3)c2cnn(-c3ccn[nH]3)c2n1 (stereo not given) + Cc1cnc(CNC(=O)c2c(=O)c3ccc(N4CCCN(C)CC4)nc3n3c2sc2ccccc23)cn1
< 31.6 nM
